Hey, just so you know, these numbers are from patent US20260242735A1.

- Tested Target: human CD33 A217S (human, UniProt P20138 18-364)
- Sequence (P20138 18-364 A217S limits assumed): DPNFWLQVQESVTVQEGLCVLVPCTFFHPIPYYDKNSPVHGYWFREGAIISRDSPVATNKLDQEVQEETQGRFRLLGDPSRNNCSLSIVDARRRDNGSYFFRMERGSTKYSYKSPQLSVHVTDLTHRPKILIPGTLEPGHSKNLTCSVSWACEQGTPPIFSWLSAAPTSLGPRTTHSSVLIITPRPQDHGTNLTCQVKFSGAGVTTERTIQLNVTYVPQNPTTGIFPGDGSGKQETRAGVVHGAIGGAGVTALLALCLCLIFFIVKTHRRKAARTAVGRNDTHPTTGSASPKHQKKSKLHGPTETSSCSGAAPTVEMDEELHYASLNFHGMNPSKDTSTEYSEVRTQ
- Experimental Protocol: alanine scan, flow cytometry, HEK293-T;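 note: antibody binding to each alanine-substituted CD33 mutant expressed transiently in HEK293-T, read as fluorescence minus background, mean of duplicates, relative to wild-type CD33 set as 100%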
Measure Name: Mean % WT Binding (%)
Hi! Could you send only the number? It should be in %, unit omitted.

Example results:
Query: Would you kindly share the measured Mean % WT Binding for Refmab #2 (antibody, V domains shown, In the alanine scan antibodies were used as IgG or Fab) VH: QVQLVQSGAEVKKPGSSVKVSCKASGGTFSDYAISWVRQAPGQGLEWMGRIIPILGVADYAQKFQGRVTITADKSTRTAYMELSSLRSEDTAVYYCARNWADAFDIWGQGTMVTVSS VL: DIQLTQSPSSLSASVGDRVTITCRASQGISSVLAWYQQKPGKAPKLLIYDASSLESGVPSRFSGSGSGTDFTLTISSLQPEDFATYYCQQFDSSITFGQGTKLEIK ?
Response: 109

Query: Try the binder Refmab #1 (antibody, V domains shown, In the alanine scan antibodies were used as IgG or Fab; also called hP67.6) VH: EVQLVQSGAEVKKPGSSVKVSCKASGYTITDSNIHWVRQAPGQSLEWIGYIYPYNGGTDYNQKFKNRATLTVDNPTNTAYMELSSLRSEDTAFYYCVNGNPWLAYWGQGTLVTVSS VL: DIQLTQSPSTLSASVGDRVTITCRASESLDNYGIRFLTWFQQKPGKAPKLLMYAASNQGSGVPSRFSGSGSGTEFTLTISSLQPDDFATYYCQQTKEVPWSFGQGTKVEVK
Response: 80.2

Next:
Query: Fill blank: measured Mean % WT Binding of the binder Refmab #4 (antibody, V domains shown, In the alanine scan antibodies were used as IgG or Fab) VH: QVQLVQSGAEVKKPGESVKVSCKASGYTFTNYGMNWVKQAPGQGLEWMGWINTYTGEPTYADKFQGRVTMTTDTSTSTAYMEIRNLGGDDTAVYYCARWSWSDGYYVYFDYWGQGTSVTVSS VL: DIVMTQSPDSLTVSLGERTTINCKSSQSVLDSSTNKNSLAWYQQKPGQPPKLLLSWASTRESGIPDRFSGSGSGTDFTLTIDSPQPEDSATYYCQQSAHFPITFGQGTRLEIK is ____.
Response: 61.1
